Exercise: for every item that follows, state its recorded ΔH.
target: T1, E. coli β clamp (β subunit of DNA polymerase III, dnaN gene product) (E. coli, UniProt P0A988 1-366); assay: ITC, peptide 400 µM into β ring 20 µM, 25 °C, second experiment
T1 construct: Expressed in BL21 E. coli from pET15b with an N-terminal tag; also called β ring; β protein; not shown: N-terminal tag from plasmid pET15b ('N-tagged protein', purified on Ni-NTA)
T1 sequence (P0A988 whole entry): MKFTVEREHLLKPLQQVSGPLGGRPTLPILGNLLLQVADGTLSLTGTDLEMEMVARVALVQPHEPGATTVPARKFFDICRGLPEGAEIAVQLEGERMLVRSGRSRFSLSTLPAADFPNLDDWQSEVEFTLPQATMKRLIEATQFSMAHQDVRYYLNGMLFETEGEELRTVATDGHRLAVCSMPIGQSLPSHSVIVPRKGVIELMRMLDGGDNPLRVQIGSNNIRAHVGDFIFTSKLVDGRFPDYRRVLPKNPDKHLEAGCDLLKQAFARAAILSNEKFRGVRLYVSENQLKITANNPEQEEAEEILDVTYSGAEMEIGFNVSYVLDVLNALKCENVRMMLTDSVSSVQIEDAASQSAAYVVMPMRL
Square brackets hold non-standard residues; d marks the D form. Phe(3,4-Cl2) = N[C@@H](Cc1ccc(Cl)c(Cl)c1)C(=O)O; Phe(4-Br) = N[C@@H](Cc1ccc(Br)cc1)C(=O)O; Phe(4-Cl) = N[C@@H](Cc1ccc(Cl)cc1)C(=O)O; Phe(4-Me) = Cc1ccc(C[C@H](N)C(=O)O)cc1; Cha = N[C@@H](CC1CCCCC1)C(=O)O
Your answer is read as kcal/mol, so omit the unit and give the number.

**Query** Look up ΔH: Ac-Q[Cha]DL[Phe(4-Br)]-OH (SMILES CC(=O)N[C@@H](CCC(N)=O)C(=O)N[C@@H](CC1CCCCC1)C(=O)N[C@@H](CC(=O)O)C(=O)N[C@@H](CC(C)C)C(=O)N[C@@H](Cc1ccc(Br)cc1)C(=O)O, also called AcQChaDLpBrF; Ac-Q Cha DL pBrF) [P13 (Ac-Gln-Cha-Asp-Leu-pBrPhe-OH)]
**Result** -15.2

**Query** Look up ΔH: Ac-Q[Cha]DL[Phe(4-Me)]-OH (SMILES CC(=O)N[C@@H](CCC(N)=O)C(=O)N[C@@H](CC1CCCCC1)C(=O)N[C@@H](CC(=O)O)C(=O)N[C@@H](CC(C)C)C(=O)N[C@@H](Cc1ccc(C)cc1)C(=O)O, also called AcQChaDLpMeF; Ac-Q Cha DL pMeF) [P11 (Ac-Gln-Cha-Asp-Leu-pMePhe-OH)]
**Result** -14.4

**Query** Look up ΔH: Ac-Q[Cha]DL[Phe(3,4-Cl2)]-OH (SMILES CC(=O)N[C@@H](CCC(N)=O)C(=O)N[C@@H](CC1CCCCC1)C(=O)N[C@@H](CC(=O)O)C(=O)N[C@@H](CC(C)C)C(=O)N[C@@H](Cc1ccc(Cl)c(Cl)c1)C(=O)O, also called AcQChaDLdiClF; Ac Q Cha D L diClF) [P14 (Ac-Gln-Cha-Asp-Leu-(3,4-di-Cl)Phe-OH)]
**Result** -18.1

**Query** Look up ΔH: Ac-Q[Cha]DL[Phe(4-Cl)]-OH (SMILES CC(=O)N[C@@H](CCC(N)=O)C(=O)N[C@@H](CC1CCCCC1)C(=O)N[C@@H](CC(=O)O)C(=O)N[C@@H](CC(C)C)C(=O)N[C@@H](Cc1ccc(Cl)cc1)C(=O)O, also called AcQChaDLpClF; Ac-Q Cha DL pClF) [P12 (Ac-Gln-Cha-Asp-Leu-pClPhe-OH)]
**Result** -14.3
